# targetSystem: NDM-1 (New Delhi metallo-β-lactamase-1) (Klebsiella pneumoniae)
# Sequence (C7C422 29-270, looked up, species assumed): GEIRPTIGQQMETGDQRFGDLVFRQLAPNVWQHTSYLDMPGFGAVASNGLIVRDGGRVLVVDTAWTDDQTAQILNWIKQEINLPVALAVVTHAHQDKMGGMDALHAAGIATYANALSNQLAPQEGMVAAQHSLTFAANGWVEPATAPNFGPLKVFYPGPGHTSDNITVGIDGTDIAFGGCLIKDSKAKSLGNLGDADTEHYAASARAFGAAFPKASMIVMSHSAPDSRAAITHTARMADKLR
# testDetails: Enzyme inhibition assay, NDM-1
# Assay type: biochemical
# settings: read-out: pIC50 NDM-1 (converted)
endpointName: IC50 (nM)

INSERT INTO results (compoundstructurestring, targetsystem, unitabbrev, recordedvalue) VALUES
  ('Cc1ccc2c(-c3ccc(F)cc3)c(C(=O)O)[nH]c2c1', 'NDM-1 (New Delhi metallo-β-lactamase-1) (Klebsiella pneumoniae)', 'nM', 2000),
  ('CN(C)S(=O)(=O)c1ccc(-c2c(C(=O)O)[nH]c3c(C(C)(C)C)cccc23)cc1', 'NDM-1 (New Delhi metallo-β-lactamase-1) (Klebsiella pneumoniae)', 'nM', 79.4),
  ('Cc1cccc2c(-c3ccc(F)cc3)c(C(=O)O)[nH]c12', 'NDM-1 (New Delhi metallo-β-lactamase-1) (Klebsiella pneumoniae)', 'nM', 31.6),
  ('Cc1cccc2c(-c3ccc(N)cc3)c(C(=O)O)[nH]c12', 'NDM-1 (New Delhi metallo-β-lactamase-1) (Klebsiella pneumoniae)', 'nM', 31.6);

[a] Cc1ccccc1-c1c(C(=O)O)[nH]c2c(C)cccc12
[b] CC(C)c1cccc2c(-c3ccc(CN(C)C)cc3)c(C(=O)O)[nH]c12
[in] Pick the one with the larger IC50: a vs b Write the label of whichever entry you select.
[out] a
